B1: PTPLAD1 (parent)
chain: YSFYMLTCIDMDWKVLTWLRYTLW

- Variants of: B1
- ASSAY_DETAILS: protein stability index of a GFP-peptide fusion (GPS, HEK-293T) (PSI 1-6); higher = more stable;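 further: lentivirally expressed fusions sorted by FACS into six bins by GFP to DsRed ratio, PSI derived from sequencing read proportions per bin multiplied by bin number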
- CONDITION: c terminus: a fixed tail appended
MEASUREMENT_KIND: protein stability index
Give bare numbers.

Record excerpt, results attached:
R20I 1.69
I9A 2.07
L23T 4.8
Y4D 1.99
V15N 2.59

Go through the list and state protein stability index for each entry.
1. M11W
2. F3A
3. M5R

[2.13, 2.37, 2.7]

Each of the following entries comes with a recorded value; kindly state protein stability index for each.
1. I9C
2. L16I
3. I9R

1: 1.58; 2: 1.75; 3: 2.45
